Test system: Plasmodium falciparum
assay_protocol: GSK_TCMDC: Inhibition of Plasmodium falciparum 3D7 in whole erythrocytes, using parasite LDH activity as an index of growth.
Format: functional, organism-based
measurement_parameters: Plasmodium falciparum, 3D7
experimental_endpoint: XC50 (µM)
Quick note: give the figure in µM, leave out the unit.

Check out these entries, answers already filled in.
                                   compound  result_number
0  CC(C)CCN1CCCN(Cc2cccc(NC(=O)c3ccc(Cl)c(Cl)c3)c2)CC1           1.02
1  COc1ccc2nccc([C@@H](O)CN3CCC(NCc4cc5ccccc5[nH]4)CC3)c2n1          0.628
2  CCOc1ccc(Br)cc1/C=C/C(=O)Nc1ccc2c(c1)CN(C)CCC2          0.824

Quick one: XC50 for CC1=C(C(=O)Nc2cc3cn[nH]c3cc2F)C(c2cccc(NS(C)(=O)=O)c2)CC(=O)N1 (centres undefined) ?
0.434

Quick one: XC50 for CN(CCN)Cc1ccc(-c2ccc(-c3nc4cc(F)ccc4[nH]3)s2)cc1 ?
1.07

Quick one: XC50 for CCN(CC)CCN(Cc1ccc(-c2ccc(C(F)(F)F)cc2)cc1)C(=O)Cn1c(CCc2cc(F)cc(F)c2)nc(=O)c2ccccc21 ?
0.983

Quick one: XC50 for COc1ccc2nccc([C@@H](O)CN3CCC(NC(=O)/C=C/c4ccc(F)c5ccccc45)CC3)c2c1 ?
0.184

Quick one: XC50 for FC(F)(F)c1ccc2c(NCCCNc3ccnc4cc(C(F)(F)F)ccc34)ccnc2c1 ?
0.0315

Quick one: XC50 for Cc1cccc(CCCNC(=O)CN(c2cccc(C(F)(F)F)c2)S(=O)(=O)c2ccc(C(F)(F)F)cc2)c1 ?
0.684
